The values you see were collected from the supplement of paper PMC10065799.

# Assay Target: EPHB2 (UniProt P29323)
# Sequence (P29323 whole entry, looked up): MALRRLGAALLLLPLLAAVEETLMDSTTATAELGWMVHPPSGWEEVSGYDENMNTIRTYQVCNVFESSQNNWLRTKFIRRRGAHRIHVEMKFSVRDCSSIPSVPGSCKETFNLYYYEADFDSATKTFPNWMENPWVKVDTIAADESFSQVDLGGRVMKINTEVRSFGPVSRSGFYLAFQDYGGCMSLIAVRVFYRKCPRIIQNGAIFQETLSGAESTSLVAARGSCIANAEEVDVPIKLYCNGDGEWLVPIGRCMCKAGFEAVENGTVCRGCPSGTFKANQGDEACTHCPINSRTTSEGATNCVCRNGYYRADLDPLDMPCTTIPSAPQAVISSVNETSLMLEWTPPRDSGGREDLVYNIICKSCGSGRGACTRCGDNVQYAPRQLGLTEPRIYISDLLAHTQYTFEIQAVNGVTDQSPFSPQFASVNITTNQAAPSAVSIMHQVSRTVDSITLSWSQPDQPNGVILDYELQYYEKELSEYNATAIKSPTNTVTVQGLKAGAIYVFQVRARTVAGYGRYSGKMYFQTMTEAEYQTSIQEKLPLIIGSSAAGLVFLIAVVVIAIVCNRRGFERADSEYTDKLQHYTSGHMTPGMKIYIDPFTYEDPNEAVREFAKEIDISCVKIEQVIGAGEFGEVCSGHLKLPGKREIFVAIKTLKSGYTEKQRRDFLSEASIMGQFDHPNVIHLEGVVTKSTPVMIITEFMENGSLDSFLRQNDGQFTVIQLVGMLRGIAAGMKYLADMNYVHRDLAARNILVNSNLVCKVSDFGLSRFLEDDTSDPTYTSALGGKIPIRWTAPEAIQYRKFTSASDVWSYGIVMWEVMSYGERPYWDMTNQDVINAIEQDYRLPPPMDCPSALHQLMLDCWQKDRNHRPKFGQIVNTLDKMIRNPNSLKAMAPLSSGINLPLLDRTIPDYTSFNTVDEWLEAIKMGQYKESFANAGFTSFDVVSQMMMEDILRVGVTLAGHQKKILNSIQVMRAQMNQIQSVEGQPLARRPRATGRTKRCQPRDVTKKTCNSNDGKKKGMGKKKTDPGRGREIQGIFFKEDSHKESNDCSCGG
# Assay Text: phosphorylation enrichment, bacterial display (enrichment ratio); higher = better substrate or ligand; peptides without Tyr show the background;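 also: 11-residue human phosphosite peptides and single-mutation variants displayed on the E. coli surface, counted by deep sequencing, each peptide's frequency after selection divided by its frequency in the unselected input library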;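 also: frequency after pTyr selection over input frequency; kinase dosed for 20-30% of maximal phosphorylation in three min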
Metric: phosphorylation enrichment

Completed entries (count: 3):
[
  {
    "Sequence Code": "SPDMLYQYLKQ [RPAP3_Y567]",
    "Assay Value": 1.78
  },
  {
    "Sequence Code": "TTICKYITPME [GUCY2C_Y839_S840I]",
    "Assay Value": 0.466
  },
  {
    "Sequence Code": "KSIQLYDTPYE [SHB_Y297_G293S]",
    "Assay Value": 15.8
  }
]

Answer with the recorded phosphorylation enrichment of QMVRMYASSYM [AVPR2_Y124_G122R] only.
0.787

Answer with the recorded phosphorylation enrichment of LNLKDYNLVGG [GNAQ_Y356_E355D] only.
0.428

Answer with the recorded phosphorylation enrichment of PLDVEYFTLQI [TP53_Y327_G325V] only.
0.659

Answer with the recorded phosphorylation enrichment of LLREWYLQDPY [SIX3_Y225] only.
0.928

Answer with the recorded phosphorylation enrichment of KRAIGYYSATS [FAM120A_Y327] only.
0.387

Answer with the recorded phosphorylation enrichment of QITQVYGFFHE [PPP2CA_Y127_D131H_YF] only.
1.11

Answer with the recorded phosphorylation enrichment of YSGIYYKPESL [L2HGDH_Y103_H98Y] only.
12.4

* * *

# Tested on: Fer (mouse)
# Assay Text: phosphorylation enrichment, bacterial display (enrichment ratio); higher = better substrate or ligand; peptides without Tyr show the background
Everything with phosphorylation enrichment lower than 0.4 is No; everything else, including exactly 0.4, is Yes.

Look over these answered cases.
[
  {
    "Sequence Code": "QKFMAYLSQGG [HLCS_Y236]",
    "Assigned Label": "Yes"
  },
  {
    "Sequence Code": "NGPDVYVLPLT [AATK_Y93]",
    "Assigned Label": "Yes"
  }
]

// switching to the query sequence
State whether the measured phosphorylation enrichment reaches 0.4, counting equality as reaching it, for VMTSKYRGGGG [HBA1_Y141_L137M]
No

* * *

# Assay Target: Hck (UniProt P08631)
# Sequence (P08631 whole entry, looked up): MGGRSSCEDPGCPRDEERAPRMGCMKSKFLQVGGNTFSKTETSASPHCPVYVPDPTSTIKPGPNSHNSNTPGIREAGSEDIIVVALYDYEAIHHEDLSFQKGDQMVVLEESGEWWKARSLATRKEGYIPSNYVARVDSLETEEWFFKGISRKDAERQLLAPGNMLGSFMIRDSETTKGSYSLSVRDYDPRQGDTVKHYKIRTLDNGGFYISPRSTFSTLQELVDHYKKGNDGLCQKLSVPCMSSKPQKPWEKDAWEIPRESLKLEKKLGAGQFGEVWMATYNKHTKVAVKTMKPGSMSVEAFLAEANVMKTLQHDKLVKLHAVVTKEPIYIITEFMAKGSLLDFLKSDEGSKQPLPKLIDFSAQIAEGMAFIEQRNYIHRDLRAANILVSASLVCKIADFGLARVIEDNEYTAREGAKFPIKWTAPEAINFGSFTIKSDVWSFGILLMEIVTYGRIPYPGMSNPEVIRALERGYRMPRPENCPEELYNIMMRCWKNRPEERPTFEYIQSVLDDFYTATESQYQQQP
# Assay Text: phosphorylation enrichment, bacterial display (enrichment ratio); higher = better substrate or ligand; peptides without Tyr show the background
Metric: phosphorylation enrichment
Would you mind answering with just the numeric figure?

Completed entries (count: 5):
[
  {
    "Sequence Code": "AEMKRYSESSS [RAI14_Y869_A870S]",
    "phosphorylation enrichment": 0.37
  },
  {
    "Sequence Code": "YARECYSALPQ [SARS2_Y52_G51C]",
    "phosphorylation enrichment": 3.13
  },
  {
    "Sequence Code": "EGTGHYLCNAC [GATA5_Y208_D203E]",
    "phosphorylation enrichment": 0.352
  },
  {
    "Sequence Code": "KNSFKYFMSDD [ATRX_Y203_C200S_YF]",
    "phosphorylation enrichment": 0.478
  },
  {
    "Sequence Code": "QDEHGYISRCF [HSPB1_Y133]",
    "phosphorylation enrichment": 0.838
  }
]

Answer with the recorded phosphorylation enrichment of FEGAIYRKDIG [GART_Y417_V421I] only.
0.506

Answer with the recorded phosphorylation enrichment of PSSNLYYRCLT [CNGA3_Y168_W171C] only.
1.89

Answer with the recorded phosphorylation enrichment of TLRKTYGEMAD [ALB_Y108_E106K] only.
0.433

Answer with the recorded phosphorylation enrichment of GVYSRYFTTYD [CLCA1_Y661] only.
3.33

Answer with the recorded phosphorylation enrichment of VECQVYAEDPF [PCCA_Y401_R399Q_YF] only.
0.587

Answer with the recorded phosphorylation enrichment of GGKFSYLKVGH [GRM3_Y480_YF] only.
0.371

Answer with the recorded phosphorylation enrichment of IPGRFYETGSI [PAX2_Y73_L69P_YF] only.
0.517

Answer with the recorded phosphorylation enrichment of YYLGKYLQEVL [KLB_Y910] only.
0.565

Answer with the recorded phosphorylation enrichment of TVDASYYGGRG [ANTXR2_Y380] only.
1.14

Answer with the recorded phosphorylation enrichment of IVRSLYEDQED [VHL_Y185_L188Q] only.
0.581

Answer with the recorded phosphorylation enrichment of DFRTTYVNANE [KCNH2_Y475_N470D] only.
0.44

Answer with the recorded phosphorylation enrichment of HRFAAYFQQGD [GPI_Y351] only.
0.501

Answer with the recorded phosphorylation enrichment of QFFQGYFNNNF [ZNF236_Y644_S643G] only.
0.574

Answer with the recorded phosphorylation enrichment of DQNVEYKGTVW [FHL1_Y117] only.
0.466

Answer with the recorded phosphorylation enrichment of HITQVYGFFDE [PPP2CA_Y127_Q122H_YF] only.
7.13
